The measurements presented in this section are drawn from patent US20210040074A1.

# test system: D4R (Homo sapiens, UniProt P21917)
# Sequence (P21917 whole entry): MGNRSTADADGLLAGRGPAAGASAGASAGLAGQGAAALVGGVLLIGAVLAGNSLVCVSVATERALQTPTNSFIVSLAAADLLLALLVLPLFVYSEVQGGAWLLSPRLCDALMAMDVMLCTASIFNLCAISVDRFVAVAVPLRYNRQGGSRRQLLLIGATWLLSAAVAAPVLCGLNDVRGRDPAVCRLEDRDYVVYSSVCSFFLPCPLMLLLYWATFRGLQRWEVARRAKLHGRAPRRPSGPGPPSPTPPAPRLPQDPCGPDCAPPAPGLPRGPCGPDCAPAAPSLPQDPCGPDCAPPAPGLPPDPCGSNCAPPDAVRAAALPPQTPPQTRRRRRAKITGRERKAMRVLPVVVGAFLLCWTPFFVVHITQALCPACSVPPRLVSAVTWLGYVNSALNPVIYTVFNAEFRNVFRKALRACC
# experiment description: D4 β-arrestin recruitment assay (DiscoverX PathHunter, CHO-K1 cells)
# Format: cell-based
# Parameters: inferred from the same PathHunter system described for D1R and D5R; host or cells: CHO-K1
# condition description: fold change of dopamine EC50, 50 μM compound
Binary classification by D4 Beta-Arrestin: DA + 50 μM PAM, Fold Change EC50, with 1 as an inclusive lower bound for label 1; all other cases are label 0.

API: above_or_equal(metric=D4 Beta-Arrestin: DA + 50 μM PAM, Fold Change EC50, cutoff=1) for item CN1CCc2c(sc(NC(=O)c3ccncc3)c2C#N)C1 [Compound 34]
label 0

API: above_or_equal(metric=D4 Beta-Arrestin: DA + 50 μM PAM, Fold Change EC50, cutoff=1) for item CC(C)(C)C1CCc2c(sc(NC(=O)c3cncc(Br)c3)c2C(N)=O)C1 (stereo not drawn) [Compound 29]
label 1

API: above_or_equal(metric=D4 Beta-Arrestin: DA + 50 μM PAM, Fold Change EC50, cutoff=1) for item CC1CCc2c(sc(NC(=O)c3ccncc3)c2C(N)=O)C1 (stereo not drawn) [Compound 33]
label 0

API: above_or_equal(metric=D4 Beta-Arrestin: DA + 50 μM PAM, Fold Change EC50, cutoff=1) for item CC(C)(C)C1CCc2c(sc(NC(=O)c3cccnc3)c2C(N)=O)C1 (stereo not drawn) [Compound 38]
label 1

API: above_or_equal(metric=D4 Beta-Arrestin: DA + 50 μM PAM, Fold Change EC50, cutoff=1) for item NC(=O)c1c(NC(=O)c2ccccn2)sc2c1CCCC2 [Compound 36]
label 1

API: above_or_equal(metric=D4 Beta-Arrestin: DA + 50 μM PAM, Fold Change EC50, cutoff=1) for item CC(C)Cc1nc2c(c(=O)c3ccccc3n2C)c(=O)n1-c1ccc(Cl)cc1 [Compound 6]
label 0

API: above_or_equal(metric=D4 Beta-Arrestin: DA + 50 μM PAM, Fold Change EC50, cutoff=1) for item COc1ccc(-n2c(CC(C)C)nc3c(c(=O)c4ccccc4n3C)c2=O)cc1Cl [Compound 8]
label 1

API: above_or_equal(metric=D4 Beta-Arrestin: DA + 50 μM PAM, Fold Change EC50, cutoff=1) for item COc1ccc(-n2c(C3CCCC3)nc3c(c(=O)c4ccccc4n3C)c2=O)cc1 [Compound 11]
label 1

API: above_or_equal(metric=D4 Beta-Arrestin: DA + 50 μM PAM, Fold Change EC50, cutoff=1) for item Cn1c2ccccc2c(=O)c2c(=O)n(-c3cccc(Cl)c3)c(CC3CCCCC3)nc21 [Compound 18]
label 1

* * *

# test system: UniProt:P21917
# experiment description: D4 β-arrestin recruitment assay (DiscoverX PathHunter, CHO-K1 cells)
# Assay type: cell-based
# Set-up: inferred from the same PathHunter system described for D1R and D5R; host or cells: CHO-K1
# condition description: fold change of dopamine EC50, 50 μM compound
Listed here are molecules together with their documented D4 Beta-Arrestin: DA + 50 μM PAM, Fold Change EC50.

Record excerpt, results attached:
{"molecule": "COc1ccc(-n2c(C3CCCCC3)nc3c(c(=O)c4ccccc4n3C)c2=O)cc1Cl", "test system": "UniProt:P21917", "measured": 0.61}
{"molecule": "Cn1c2ccccc2c(=O)c2c(=O)[nH]c(C3CCCC3)nc21", "test system": "UniProt:P21917", "measured": 0.71}
{"molecule": "CC1CCc2c(sc(NC(=O)c3ccccn3)c2C(N)=O)C1 (centres unmarked)", "test system": "UniProt:P21917", "measured": 1.06}
{"molecule": "Cn1c2ccccc2c(=O)c2c(=O)n(-c3ccccc3)c(C3CCCC3)nc21", "test system": "UniProt:P21917", "measured": 1.26}
{"molecule": "Cn1c2ccccc2c(=O)c2c(=O)n(-c3ccc(Cl)cc3)c(CC3CCCCC3)nc21 [Compound 25]", "test system": "UniProt:P21917", "measured": 0.77}
{"molecule": "COc1ccc(-n2c(C3CCCC3)nc3c(c(=O)c4ccccc4n3C)c2=O)cc1Cl", "test system": "UniProt:P21917", "measured": 1.33}
{"molecule": "NC(=O)c1c(NC(=O)c2cccnc2)sc2c1CCC(c1ccccc1)C2 (centres unmarked)", "test system": "UniProt:P21917", "measured": 0.68}
{"molecule": "COc1ccc(-n2c(CC3CCCCC3)nc3c(c(=O)c4ccccc4n3C)c2=O)cc1", "test system": "UniProt:P21917", "measured": 1.45}
{"molecule": "Cc1ccc(-n2c(CC(C)C)nc3c(c(=O)c4ccccc4n3C)c2=O)cc1", "test system": "UniProt:P21917", "measured": 1.06}
{"molecule": "COc1ccc(-n2c(CC(C)C)nc3c(c(=O)c4ccccc4n3C)c2=O)cc1", "test system": "UniProt:P21917", "measured": 1.58}

Let me know recorded D4 Beta-Arrestin: DA + 50 μM PAM, Fold Change EC50 for CC(C)Cc1nc2c(c(=O)c3ccccc3n2C)c(=O)n1-c1ccccc1 , thanks.
0.62

Let me know recorded D4 Beta-Arrestin: DA + 50 μM PAM, Fold Change EC50 for Cn1c2ccccc2c(=O)c2c(=O)n(-c3ccccc3)c(C3CCCCC3)nc21 , thanks.
1.06

Let me know recorded D4 Beta-Arrestin: DA + 50 μM PAM, Fold Change EC50 for COc1ccc(-n2c(CC3CCCCC3)nc3c(c(=O)c4ccccc4n3C)c2=O)cc1Cl , thanks.
1.78

Let me know recorded D4 Beta-Arrestin: DA + 50 μM PAM, Fold Change EC50 for Cn1c2ccccc2c(=O)c2c(=O)n(-c3ccccc3)c(CC3CCCCC3)nc21 , thanks.
2.14

Let me know recorded D4 Beta-Arrestin: DA + 50 μM PAM, Fold Change EC50 for Cc1ccc(-n2c(C3CCCCC3)nc3c(c(=O)c4ccccc4n3C)c2=O)cc1 , thanks.
0.64

Let me know recorded D4 Beta-Arrestin: DA + 50 μM PAM, Fold Change EC50 for Cn1c2ccccc2c(=O)c2c(=O)n(-c3cccc(Cl)c3)c(C3CCCC3)nc21 , thanks.
1.90

Let me know recorded D4 Beta-Arrestin: DA + 50 μM PAM, Fold Change EC50 for Cc1ccc(-n2c(CC3CCCCC3)nc3c(c(=O)c4ccccc4n3C)c2=O)cc1 , thanks.
1.40
